target: human CCR5 receptor (hCCR5) (human), P51681; experiment: inhibition of gp120CM235/sCD4 binding to GHOST CD4.CCR5 cells (FIG. 4C)
Sequence (P51681 whole entry): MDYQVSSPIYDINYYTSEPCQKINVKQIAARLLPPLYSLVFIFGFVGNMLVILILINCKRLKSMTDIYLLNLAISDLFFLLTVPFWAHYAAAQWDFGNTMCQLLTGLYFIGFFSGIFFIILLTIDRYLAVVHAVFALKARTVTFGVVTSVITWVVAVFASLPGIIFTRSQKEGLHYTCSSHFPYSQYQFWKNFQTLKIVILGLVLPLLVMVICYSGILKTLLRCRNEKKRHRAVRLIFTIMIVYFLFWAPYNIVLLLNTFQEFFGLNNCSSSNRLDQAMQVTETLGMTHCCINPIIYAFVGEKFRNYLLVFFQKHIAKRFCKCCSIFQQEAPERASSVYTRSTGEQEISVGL
recorded-endpoint: IC50 (nM)

[[record]]
binder = "ASTTTNYT (modifications not checked) [DAPTA (Dala1-peptide T-amide)]"
data_value = 0.051


Data credit: patent US20190000964A1
